assay: yeast display, Sf9 membrane polyspecificity reagent, FACS + sequencing; frameworks hold sequencing errors
Readout Name: polyreactivity (PSR sort gate)

Solved cases below.
QVQLVESGGGLVQAGGSLRLSCAASGFILTQYAMGWYREAPGKERELVASISSSGSTYYADSVKGRFTISRDNAKNTVYLQMNSLKPEDTGVYYCATPGPAVHGTRGEYDYWGQGTQVTVSS: high polyreactivity
QVQLVESGGGLVQAGGILRLSCAASGRTFLYYAMGWYRQAPGKERELVAGITSGGSTNYADSVKGRFTISRDTAKNTDYLQMNSLKPEDTAVYYCAVDQGYYRTADVNYDYWGQGTQVTVSS: low polyreactivity
QVQLVESGGGIVQAGGSLRLSCAASGRTIYFNAMGWYRQAPGKERELVATISRSTGSTYYADSVKGRFTISRDNAKNTVYLQMNSLKPEYTAVYYCNATPWGYARMDYWGQGTQVTVSS: low polyreactivity
QVQLVESGGGLVQAGGSLRLSCADSGSIFQPYAMGWYRQAPGKERELVAAINGRGGSTHYADSVKGRFTISRDNEKNSVYLQMNSLKPEDTAVYDCAARYYRDYRWYTYAYDYWGQGTQVTVSS: high polyreactivity

Now for a further sequence.
According to the records, this sequence QVQLVESGGGLVQAGGRLRLSCAASGAIFDRNVMGWYSQAPGQERELVAAISGSGGRTYYADSVKGRFTISRDNAKNTVYLQMNSLKPEDTAVYYCAARAFRVVPGGDYWGQGTQVTVSS displays polyreactivity (PSR sort gate) of high polyreactivity

====

assay: yeast display, Sf9 membrane polyspecificity reagent, FACS + sequencing; frameworks hold sequencing errors
Readout Name: polyreactivity (PSR sort gate)

QVQLVESGGGLVQAGGSLRLSCAASGFIFKRYAMGWYRQAPGKERELVAAITSGGSTHYADSVKGRFTISRDNAKNTVYLQMNSLKPEDTAVYYCAAVPRVNWSRYVYFWYDYWGQGTQVTVSS: high polyreactivity
QVQLVESGGGVVQAGGSLRLSCAASGRIFIYYTMGWYRQAPGKEREFVAAITYSGGSTRYADSVKGRFTISRDNAKNTVYLQMNSLKPEDTAFYYCAAKFSVRRGFDYWGQGTQVTVSS: low polyreactivity
QVQLVESGGGLVQAGGSLRLSCAASGSTFHRYVMGWYRQAPGKERELVAVINSTGGSTYYADSVKGRFTISRDNAKNTVYLQMNSLKPEDNAVYYCARVTRRGPGYTTLYSRYDYWGQGTQVTVSS: low polyreactivity
QVQLVESGGGLVQAGGSLRLSCASSGFTFTLYARGWYRQAPGKEWELVAAINRSGGRTYYADSVKGRFTISRDNAKNTVYLQMNSLKPEDTAVYYCNKYPWPNYYDGEYDYWGQGTQVTVSS: high polyreactivity

According to the records, this sequence QVQLVESGGGLVQAGGSLRLSCAASGRIFSTYTMGWYSQAPGKDRELVARSSWSAGRTYYADSVKGRFTISRDNAKNSVYLQMNSLKPEETAVYYCAADGYTQRGYDYWGQGTQVTVSS displays polyreactivity (PSR sort gate) of high polyreactivity

====

assay: yeast display, Sf9 membrane polyspecificity reagent, FACS + sequencing; frameworks hold sequencing errors
Readout Name: polyreactivity (PSR sort gate)

Solved cases below.
QVQLVDSGGGLVQAGGSLRLSCAASGYIFPWYVKGWYRQAPVKERELVAAISWSGGSTYYADSVKGRFTISRDNAKNTVYLQMKSLKPEDTAVYYCNAVRTYRDVSYNSWGQGTQVNVSS: high polyreactivity
QVQLVESGGGLVQAGGSLRLSCAASGRIFDYYTMGGYRQAPGKETELVAAINWSGGSTYYADSVKGRFTISRDNAKNTVYLQMNSLKPEDTAVYYCATLSYGREYGYWGQGTQVTVSS: low polyreactivity
EVQLVESGGGLVQAGGSLRLSCAASGFTFGVYARGWYRQAPGKERELVAAITWGDGSTYYADSVKGRFTISRDNAKNTVYLQMNSLKPEDTAVYYCNAVTRRHKYYYWGQGTQVTVSS: high polyreactivity
QVQLVESGGGLVQAGGSLRLSCAASGLTFYAYAMGWYRQAPVKERELVAAISVRGRSTYYADSVKGRFTISRDIAKNTVFLQMNSLKPEDTAVYYCAAEFYRVQNFQFYYWGQGTQVTVSS: high polyreactivity

Now for a further sequence.
According to the records, this sequence QVQLVESGGGLVQAGGSLRLSCAASGRTFSPNAMGWYRQAPGKEREFVAAITWSGGGTFYADSVKGRFTISRDNAKNTVYLQMNSLKPEDTAVYYCAARLDTYQTHSVITPAALYYWGQGTQVTVSS displays polyreactivity (PSR sort gate) of low polyreactivity

// provenance: the nanobody polyreactivity screen of Harvey et al. (2022)
